Below, each of the molecules is paired with its reported GI50 value.
- Tested on: OVCAR-8
- Assay protocol: NCI tumour cell line growth inhibition, 48 h
The source made the active and inactive calls. No stated cut-off is given here; in the data, active = GI50 up to about 1.1 µM and inactive = higher.

QUERY: Given "Cc1c(OCc2ccccc2)c(=O)ccn1CCc1c[nH]c2ccccc12" , state its recorded GI50.
RESULT: 53 µM (inactive)

QUERY: Given COc1cc(NC(C)c2ccc3c(c2)OCCO3)cc(OC)c1OC (stereo unspecified) , state its recorded GI50.
RESULT: 47.3 µM (inactive)

QUERY: Given COc1ccc2c(=O)c3ccoc3n(CC=C(C)C)c2c1 [ACROPHYLLINE] , state its recorded GI50.
RESULT: 39.5 µM (inactive)

QUERY: Given CC(=O)OC1CN2CCC1CC2 (stereo unspecified) [ACECLIDINE] , state its recorded GI50.
RESULT: > 100 µM (inactive)

QUERY: Given "CCOC(=O)c1c(-c2ccccc2)c(C)cn1C" , state its recorded GI50.
RESULT: > 10 µM (inactive)

Further cases:
QUERY: Given N=C(N)C1CN(CCc2c[nH]cn2)C(=O)NC1=O (stereo unspecified) , state its recorded GI50.
RESULT: > 100 µM (inactive)

Source of measurements: ChEMBL document CHEMBL1201862
